meta.source: ChEMBL document CHEMBL4308832

test: in vivo; details: rat, brain, iv, 0.5 mg/kg
MEASURED_PROPERTY: Kp uu at 4 h
Enter a number only.

Quick check: Kp uu at 4 h of CC(C)(O)CNC(=O)c1cc(NC(=O)c2cc(-c3ncccc3F)c(Cl)cc2Cl)n(-c2ccccc2)n1 ?
0.015

----------
experiment: in vitro; settings: dog, MDCK
MEASURED_PROPERTY: Papp A→B (×10⁻⁶ cm/s)
Please respond with the number in ×10⁻⁶ cm/s and leave the unit unwritten.

Example cases with answers are listed next.
mol=NC(=O)c1cc(NC(=O)c2cc(-c3cccc(N)n3)c(Cl)cc2Cl)n(-c2ccccc2)n1 data_value=11
mol=CC(=O)Nc1cccc(-c2ccc(Cl)c(C(=O)Nc3cc(C(N)=O)nn3-c3ccccc3)c2)n1 data_value=10

Quick check: Papp A→B of Cc1cc(Cl)c(C(=O)Nc2cc(C(N)=O)nn2-c2ccccc2)cc1-c1ccccn1 ?
12

Quick check: Papp A→B of NC(=O)c1cc(NC(=O)c2cc(-c3ccccn3)c(OC(F)F)cc2Cl)n(-c2ccccc2)n1 ?
13

Quick check: Papp A→B of NC(=O)c1cc(NC(=O)c2cc(-c3ncccc3Cl)ccc2Cl)n(-c2ccccc2)n1 ?
14

Quick check: Papp A→B of O=C(NCCO)c1cc(NC(=O)c2cc(-c3ccccn3)c(Cl)cc2Cl)n(-c2ccccc2)n1 ?
12
